Reference source: ChEMBL document CHEMBL3351998

target: Protein-glutamine gamma-glutamyltransferase (Homo sapiens); assay: Inhibition of human transglutaminase 2 using ((benzyloxy)carbony l)-L-glutaminylglycine peptide substrate assessed as Kinh/Ki ratio by GDH coupled assay
Ratio reference

O=C(NC[C@@H]1CC(Br)=NO1)[C@@H]1CCCN1C(=O)OCc1ccccc1 : 4.1

Request the reported Ratio associated with `N[C@@H]1C[C@@H](C(=O)NC[C@@H]2CC(Br)=NO2)N(C(=O)OCc2cnc3ccccc3c2)C1`
2.6

Report Ratio for `C[C@H](OC(=O)N1CCC[C@H]1C(=O)NC[C@@H]1CC(Br)=NO1)c1ccc2ccccc2c1` please.
9

Would you mind telling me what Ratio value was observed for `O=C(NC[C@@H]1CC(Br)=NO1)[C@@H]1C[C@@H](Cc2ccccc2)CN1C(=O)OCc1cnc2ccccc2c1` ?
10.2

What value of Ratio has been recorded for this entry: `O=C(NC[C@@H]1CC(Br)=NO1)[C@@H]1CCCN1C(=O)OCc1cccc(F)c1`
3.9

Find the recorded Ratio belonging to `O=C(NC[C@@H]1CC(Br)=NO1)[C@@H]1CCN1C(=O)OCc1cnc2ccccc2c1` and report it.
14.4

====

biological target: Protein-glutamine gamma-glutamyltransferase K (Homo sapiens); experiment: Inhibition of human transglutaminase 1 using ((benzyloxy)carbonyl)-L-glutaminyl-L-serine peptide substrate assessed as Kinh/Ki ratio by GDH coupled assay
observable: Ratio

// below: answered molecules
O=C(N[C@@H]1C[C@@H](C(=O)NC[C@@H]2CC(Br)=NO2)N(C(=O)OCc2cnc3ccccc3c2)C1)c1cnccn1 : 12
CC(C)(C)OC(=O)N1CCC[C@H]1C(=O)NC[C@@H]1CC(Br)=NO1 : 2.3
O=C(C[C@@H]1CCCN1C(=O)OCc1cnc2ccccc2c1)NC[C@@H]1CC(Br)=NO1 : 1.3
O=C(NC[C@@H]1CC(Br)=NO1)[C@@H]1CCCN1C(=O)OCc1ccccn1 : 1.6
O=C(NC[C@@H]1CC(Br)=NO1)[C@@H]1C[C@@H](Cc2ccccc2)CN1C(=O)OCc1cnc2ccccc2c1 : 23.1

[A] O=C(NC[C@@H]1CC(Br)=NO1)[C@@H]1C[C@@H](c2ccc(O)cc2)CN1C(=O)OCc1cnc2ccccc2c1
[B] C[C@H](OC(=O)N1CCC[C@H]1C(=O)NC[C@@H]1CC(Br)=NO1)c1ccc2ccccc2c1
Could you tell me which of these two has the smaller Ratio figure? First: A Second: B Select an item and report its label.
B

====

The following compounds are listed with their measured Ratio values.
Target: Protein-glutamine gamma-glutamyltransferase (Homo sapiens) (UniProt P21980)
Sequence (whole entry): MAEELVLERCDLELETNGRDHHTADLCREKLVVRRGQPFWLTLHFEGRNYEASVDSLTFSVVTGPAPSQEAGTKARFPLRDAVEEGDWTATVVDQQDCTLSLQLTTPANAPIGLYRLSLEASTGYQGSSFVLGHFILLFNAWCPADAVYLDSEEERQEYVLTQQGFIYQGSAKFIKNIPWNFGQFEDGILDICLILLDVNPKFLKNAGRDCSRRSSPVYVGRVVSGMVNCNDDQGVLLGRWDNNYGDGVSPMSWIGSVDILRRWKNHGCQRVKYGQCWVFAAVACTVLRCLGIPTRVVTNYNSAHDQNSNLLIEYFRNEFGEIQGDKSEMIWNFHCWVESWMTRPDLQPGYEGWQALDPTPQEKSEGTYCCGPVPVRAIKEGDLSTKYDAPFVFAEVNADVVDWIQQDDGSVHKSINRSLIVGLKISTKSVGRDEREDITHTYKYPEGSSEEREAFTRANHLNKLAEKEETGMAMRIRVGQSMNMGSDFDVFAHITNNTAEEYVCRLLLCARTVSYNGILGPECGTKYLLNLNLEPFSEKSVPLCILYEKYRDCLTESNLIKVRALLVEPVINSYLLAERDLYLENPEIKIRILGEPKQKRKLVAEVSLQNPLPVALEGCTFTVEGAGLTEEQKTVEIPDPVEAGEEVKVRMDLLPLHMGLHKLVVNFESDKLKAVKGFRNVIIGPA
Test: Inhibition of human transglutaminase 2 using ((benzyloxy)carbony l)-L-glutaminylglycine peptide substrate assessed as Kinh/Ki ratio by GDH coupled assay

O=C(NC[C@@H]1CC(Br)=NO1)[C@@H]1CCN(C(=O)OCc2cnc3ccccc3c2)C1 : 8.8

I'd like to know its Ratio. The compound in question is `O=C(NC[C@@H]1CC(Br)=NO1)[C@@H]1C=C(c2ccccc2)CN1C(=O)OCc1cnc2ccccc2c1`
11.1

Give its Ratio value. Item: `O=C(NC[C@@H]1CC(Br)=NO1)[C@@H]1CCCN1C(=O)OCc1ccnc2ccccc12`
2

Please look up its Ratio: `O=C(NC[C@@H]1CC(Br)=NO1)[C@@H]1C[C@@H](c2cccc(O)c2)CN1C(=O)OCc1cnc2ccccc2c1`
52.2

What Ratio value was documented for this compound, `O=C(NC[C@@H]1CC(Br)=NO1)[C@@H]1CCCN1C(=O)OCc1ccncc1` ?
2.6

So what's the measured Ratio for this one? `O=C(N[C@@H]1C[C@@H](C(=O)NC[C@@H]2CC(Br)=NO2)N(C(=O)OCc2cnc3ccccc3c2)C1)c1cccc(O)c1`
36.2

Ratio for `C#Cc1ccc(COC(=O)N2CCC[C@H]2C(=O)NC[C@@H]2CC(Br)=NO2)cc1` ?
6.4
